Experiment: Particle size and polydispersity index of lipid nanoparticles by dynamic light scattering
Type: physicochemical
Conditions: MO nanoparticles with amino lipid at RMO 0.3, Pluronic F-127, 25° C., mean ± SD n=3
As shown below, each of these compounds has a reported PDI of the formulations value.

- COMPOUND: "CCCCCCCC/C=C\\CCCCCCCC(=O)NCCN1CCOCC1"
  PDI of the formulations: 0.25
- COMPOUND: "CCCCCCCC/C=C\\CCCCCCCC(=O)NCc1ccccn1"
  PDI of the formulations: 0.20
- COMPOUND: "CCCCCCCC/C=C\\CCCCCCCC(=O)NCCN1CCCCC1 [Lipid-13, N-(2-(piperidin-1-yl)ethyl)oleamide]"
  PDI of the formulations: 0.23
- COMPOUND: "CCCCCCCC/C=C\\CCCCCCCC(=O)NCc1ccncc1 [Lipid-10, N-(pyridine-4-ylmethyl)oleamide]"
  PDI of the formulations: 0.22

The measurements presented in this section are drawn from patent US20250281406A1.
